Where do the numbers come from? From PubChem BioAssay (NCI).

# protocol-description: NCI Yeast Anticancer Drug Screen. Data for the cln2 rad14 strain (AID 165)
# test-parameters: S. cerevisiae cln2 rad14 strain, at 50.0 µM
The panel holds about 79,000 compounds, 15% with a hit somewhere; the sample as a whole holds those more often. Activity calls are given as the source filed them. Rule as the data show it: active = growth inhibition above about 70%; inactive = the rest.
Pick one and only one: active, inactive

Please share the test call associated with `FC(F)(F)C(C1=NC(C(F)(F)F)(C(F)(F)F)N=C(N2CCOCC2)O1)C(F)(F)F` .
inactive

Please share the test call associated with `O=c1cc(CI)oc2ccccc12` .
active

Please share the test call associated with `CSC(SC)=C(C#N)C(=O)Nc1ccc(C)cc1` .
inactive

Please share the test call associated with `CCCCCCCCCCCCCCCCCCn1[se]c2ccccc2c1=O` .
inactive

Please share the test call associated with `O=C1Nc2ccccc2/C1=C\c1ccccn1` .
inactive

Please share the test call associated with `C[n+]1c(-c2cccc(OCCCCCCCCOc3cccc(-c4c5cc(N)ccc5c5ccc(N)cc5[n+]4C)c3)c2)c2cc(N)ccc2c2ccc(N)cc21` .
active

Please share the test call associated with `O=C(CCSCCC(=O)NNc1ccccc1)NNc1ccccc1` .
inactive

Please share the test call associated with `O=C(CNC(=O)OCc1ccccc1)Oc1ccc([N+](=O)[O-])cc1` .
inactive

Please share the test call associated with `Cc1ccc(NC(=O)CSC(N)=O)cc1` .
active

Please share the test call associated with `CCOc1ccccc1-c1nc2c(s1)C(=O)c1ccccc1C2=O` .
active

Please share the test call associated with `CSc1nc(SC)c2cnn(Cc3ccccc3)c2n1` .
inactive
